# ASSAY TARGET: FLT3 (Y591_V592 ins VDFREYEYD) (Homo sapiens, UniProt P36888, INS591VDFREYEYD)
# ASSAY NAME: Inhibitory activity against FLT3 mutants
# ASSAY CONTEXT: insertion of 9 amino acids
READOUT LABEL: pIC50
Schema: pIC50 number; meaning minus log10 of the concentration expressed in molar units.

### Prompt Recorded pIC50 for Cc1oncc1C(=O)Nc1ccc2cnc(-c3cc(N4CCN(C)CC4)cc(C(F)(F)F)c3)nc2c1 [Compound 7d] , please?
### Response 6.14

* * *

# ASSAY TARGET: FLT (ITD) (Homo sapiens)
# Sequence (P36888 1-993): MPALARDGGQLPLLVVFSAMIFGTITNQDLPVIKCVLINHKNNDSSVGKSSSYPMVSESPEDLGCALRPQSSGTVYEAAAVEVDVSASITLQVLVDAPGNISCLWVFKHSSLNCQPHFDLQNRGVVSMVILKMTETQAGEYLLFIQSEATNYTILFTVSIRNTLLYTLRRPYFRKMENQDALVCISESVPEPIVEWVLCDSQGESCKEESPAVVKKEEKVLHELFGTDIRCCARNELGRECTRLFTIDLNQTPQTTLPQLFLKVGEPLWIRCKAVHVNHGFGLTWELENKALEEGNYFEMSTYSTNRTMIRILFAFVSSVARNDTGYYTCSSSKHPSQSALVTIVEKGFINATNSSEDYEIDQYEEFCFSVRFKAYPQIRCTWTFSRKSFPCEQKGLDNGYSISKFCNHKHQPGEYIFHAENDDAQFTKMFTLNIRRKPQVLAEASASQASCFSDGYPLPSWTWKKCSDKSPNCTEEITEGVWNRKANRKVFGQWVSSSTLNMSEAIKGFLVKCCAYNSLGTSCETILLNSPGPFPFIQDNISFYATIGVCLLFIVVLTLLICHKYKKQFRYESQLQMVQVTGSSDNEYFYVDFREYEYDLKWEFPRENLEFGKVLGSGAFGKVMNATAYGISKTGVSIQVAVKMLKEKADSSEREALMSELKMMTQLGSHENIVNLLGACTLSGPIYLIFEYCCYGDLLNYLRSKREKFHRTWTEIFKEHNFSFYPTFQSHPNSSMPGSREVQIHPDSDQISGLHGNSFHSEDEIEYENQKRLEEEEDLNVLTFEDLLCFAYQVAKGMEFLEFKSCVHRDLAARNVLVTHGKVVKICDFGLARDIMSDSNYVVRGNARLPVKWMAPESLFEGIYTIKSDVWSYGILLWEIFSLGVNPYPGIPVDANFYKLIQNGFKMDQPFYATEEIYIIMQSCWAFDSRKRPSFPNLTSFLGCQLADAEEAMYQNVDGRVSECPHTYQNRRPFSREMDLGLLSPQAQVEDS
# ASSAY NAME: FLT (ITD) enzyme activity (IC50)
# Type: biochemical
# ASSAY CONTEXT: read-out: IC50 against FLT-ITD
READOUT LABEL: IC50
Units required after the number.

### Prompt Recorded IC50 for Cc1oncc1C(=O)Nc1ccc2cnc(-c3cc(N4CCN(C)CC4)cc(C(F)(F)F)c3)nc2c1 , please?
### Response 0.301 µM

* * *

# ASSAY TARGET: FLT3 (Homo sapiens, UniProt P36888)
# ASSAY NAME: FLT3 enzyme activity (IC50)
# Assay type: biochemical
# ASSAY CONTEXT: read-out: FLT3 IC50
pIC50: −log10 of the molar value.
Reported pIC50 values for the following molecules.

Field: example entries. Status: answers known.
molecular_string=Cc1oncc1C(=O)Nc1ccc2cnc(-c3cnn(-c4ccccc4)c3C(F)(F)F)nc2c1 result="< 5.00"
molecular_string=Cc1oncc1C(=O)Nc1ccc2cnc(-c3cc(N4CCOCC4)cc(C(F)(F)F)c3)nc2c1 result="5.00 to 5.52"
molecular_string=COc1ccc(/C=C/c2ncc3ccc(NC(=O)c4cnoc4C)cc3n2)cc1 result="5.00 to 5.52"
molecular_string=Cc1oncc1C(=O)Nc1ccc2cnc(-c3ccccn3)nc2c1 result="< 5.00"
molecular_string=Cc1oncc1C(=O)Nc1ccc2cnc(-c3cc(OC4CCN(C)CC4)cc(C(F)(F)F)c3)nc2c1 result="5.00 to 5.52"

### Prompt Recorded pIC50 for Cc1oncc1C(=O)Nc1ccc2cnc(-c3ccc4ccccc4c3)nc2c1 , please?
### Response < 5.00

### Prompt Continue with Cc1oncc1C(=O)Nc1ccc2cnc(-c3cccc(Cl)c3)nc2c1
### Response < 5.00

### Prompt Continue with Cc1oncc1C(=O)Nc1ccc2cnc(-c3ccc(N4CCOCC4)c(C(F)(F)F)c3)nc2c1
### Response < 5.00

* * *

# ASSAY TARGET: FLT3 (Homo sapiens, UniProt P36888)
# ASSAY NAME: FLT3 enzyme activity (IC50)
# Assay type: biochemical
# ASSAY CONTEXT: read-out: IC50 against FLT3
READOUT LABEL: IC50 (nM)
Kindly provide the numeric value in nM only, without the unit symbol.

### Prompt Recorded IC50 for Cc1oncc1C(=O)Nc1ccc2cnc(-c3cc(N4CCN(C)CC4)cc(C(F)(F)F)c3)nc2c1 , please?
### Response 106

* * *

# ASSAY TARGET: ERK1 (Homo sapiens, UniProt P27361)
# Sequence (P27361 whole entry, species assumed): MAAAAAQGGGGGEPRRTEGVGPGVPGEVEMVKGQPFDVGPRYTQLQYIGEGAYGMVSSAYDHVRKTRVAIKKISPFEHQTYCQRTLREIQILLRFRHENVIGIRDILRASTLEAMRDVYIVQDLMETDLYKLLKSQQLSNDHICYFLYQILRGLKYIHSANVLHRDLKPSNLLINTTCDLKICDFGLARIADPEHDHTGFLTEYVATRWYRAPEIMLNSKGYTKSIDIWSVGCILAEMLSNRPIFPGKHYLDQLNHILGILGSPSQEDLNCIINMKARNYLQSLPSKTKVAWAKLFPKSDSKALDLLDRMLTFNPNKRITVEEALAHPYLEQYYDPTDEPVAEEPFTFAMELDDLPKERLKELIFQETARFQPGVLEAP
# ASSAY NAME: Kinase panel screening
# Format: biochemical
# ASSAY CONTEXT: control SCH772984 instead of staurosporine
READOUT LABEL: IC50 (nM)
Kindly provide the numeric value in nM only, without the unit symbol.

### Prompt Recorded IC50 for O=C(Nc1ccc2[nH]nc(-c3ccncc3)c2c1)[C@@H]1CCN(CC(=O)N2CCN(c3ccc(-c4ncccn4)cc3)CC2)C1 [SCH772984, reference compound] , please?
### Response 4.47

* * *

# ASSAY TARGET: RIPK3 (Homo sapiens, UniProt Q9Y572)
# Sequence (Q9Y572 whole entry, species assumed): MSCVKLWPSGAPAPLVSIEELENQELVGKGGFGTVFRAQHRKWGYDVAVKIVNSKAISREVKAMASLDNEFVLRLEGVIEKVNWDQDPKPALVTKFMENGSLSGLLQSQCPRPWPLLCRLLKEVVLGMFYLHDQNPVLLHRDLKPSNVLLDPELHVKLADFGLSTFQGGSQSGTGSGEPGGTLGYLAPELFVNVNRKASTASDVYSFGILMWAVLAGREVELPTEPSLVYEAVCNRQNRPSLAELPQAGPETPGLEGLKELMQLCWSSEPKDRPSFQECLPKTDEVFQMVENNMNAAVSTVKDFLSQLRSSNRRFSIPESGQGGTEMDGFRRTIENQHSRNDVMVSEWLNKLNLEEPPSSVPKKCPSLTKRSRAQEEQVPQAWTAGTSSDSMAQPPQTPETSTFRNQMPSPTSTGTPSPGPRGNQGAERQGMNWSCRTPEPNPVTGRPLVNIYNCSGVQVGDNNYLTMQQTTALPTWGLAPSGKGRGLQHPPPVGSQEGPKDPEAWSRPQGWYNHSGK
# ASSAY NAME: Kinase panel screening
# Type: biochemical
# ASSAY CONTEXT: read-out: IC50 (nM), data of GW5074, control GW5074 instead of staurosporine
READOUT LABEL: IC50 (nM)
Kindly provide the numeric value in nM only, without the unit symbol.

### Prompt Kindly state the measured IC50 obtained for O=C1Nc2ccc(I)cc2/C1=C/c1cc(Br)c(O)c(Br)c1 [GW5074, reference compound] with RIPK3 (Homo sapiens, UniProt Q9Y572).
### Response 1650

* * *

# ASSAY TARGET: FLT3 (Homo sapiens, UniProt P36888)
# Sequence (P36888 27-993): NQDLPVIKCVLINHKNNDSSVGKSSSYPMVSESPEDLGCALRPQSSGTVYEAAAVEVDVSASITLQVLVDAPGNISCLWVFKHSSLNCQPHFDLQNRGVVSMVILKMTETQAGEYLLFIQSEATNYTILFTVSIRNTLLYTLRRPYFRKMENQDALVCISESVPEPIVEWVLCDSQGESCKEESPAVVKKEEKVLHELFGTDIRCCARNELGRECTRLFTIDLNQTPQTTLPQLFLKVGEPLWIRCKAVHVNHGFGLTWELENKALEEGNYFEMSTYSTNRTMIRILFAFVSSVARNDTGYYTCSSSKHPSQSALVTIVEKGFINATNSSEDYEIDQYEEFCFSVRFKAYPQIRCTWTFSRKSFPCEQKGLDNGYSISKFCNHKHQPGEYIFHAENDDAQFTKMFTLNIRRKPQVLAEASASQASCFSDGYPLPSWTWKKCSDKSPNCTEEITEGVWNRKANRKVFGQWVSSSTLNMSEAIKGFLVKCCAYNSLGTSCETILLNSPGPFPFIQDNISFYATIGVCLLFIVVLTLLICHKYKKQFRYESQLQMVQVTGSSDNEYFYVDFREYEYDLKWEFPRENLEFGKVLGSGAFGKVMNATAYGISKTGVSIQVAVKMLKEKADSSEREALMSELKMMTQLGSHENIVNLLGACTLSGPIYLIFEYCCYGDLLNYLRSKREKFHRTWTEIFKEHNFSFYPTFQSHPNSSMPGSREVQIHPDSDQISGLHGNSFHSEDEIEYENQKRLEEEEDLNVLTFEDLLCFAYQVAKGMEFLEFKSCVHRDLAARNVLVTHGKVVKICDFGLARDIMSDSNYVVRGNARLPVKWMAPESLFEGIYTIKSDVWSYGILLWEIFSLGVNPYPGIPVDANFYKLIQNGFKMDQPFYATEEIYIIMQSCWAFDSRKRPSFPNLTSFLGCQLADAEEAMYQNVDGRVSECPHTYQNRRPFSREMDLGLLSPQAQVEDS
# ASSAY NAME: FLT3 enzyme activity (IC50)
# Format: biochemical
# ASSAY CONTEXT: read-out: FLT3 IC50
READOUT LABEL: IC50

Field: example entries. Status: answers known.
molecular_string=Cc1oncc1C(=O)Nc1ccc2cnc(-c3cc(F)cc(C(F)(F)F)c3)nc2c1 readout_label=IC50 result="> 10 µM"
molecular_string=Cc1oncc1C(=O)Nc1ccc2cnc(Cc3ccccc3C(F)(F)F)nc2c1 readout_label=IC50 result="> 10 µM"
molecular_string=Cc1oncc1C(=O)Nc1ccc2cnc(-c3ccc(Cl)c(Cl)c3)nc2c1 readout_label=IC50 result="> 10 µM"
molecular_string=Cc1oncc1C(=O)Nc1ccc2cnc(-c3ccncc3)nc2c1 readout_label=IC50 result="> 10 µM"

### Prompt Kindly state the measured IC50 obtained for Cc1oncc1C(=O)Nc1ccc2cnc(/C=C/c3ccc(Cl)cc3)nc2c1 with FLT3 (Homo sapiens, UniProt P36888).
### Response > 10 µM

### Prompt Continue with Cc1oncc1C(=O)Nc1ccc2cnc(-c3ccc4c(c3)CCO4)nc2c1
### Response > 10 µM
